Assay: Displacement of [3H]CCK8 from guinea pig brain CCK2 receptor by liquid scintillation counting
Design: species or system Cavia porcellus
Label rule, in plain words: pKi of 8 and up is Met, under 8 is Not met.

Some solved entries appear below for comparison.
[[record]]
compound = "CCN(CC)CCN1C(=O)C(NC(=O)Nc2ccccc2)C(=O)N(CC2CCCCC2)c2ccccc21 (racemic)"
class = "Met"

[[record]]
compound = "CN(C)CCN1C(=O)C(NC(=O)Nc2ccccc2)C(=O)N(CC23CC4CC(CC(C4)C2)C3)c2ccccc21 (racemic)"
class = "Met"


Attention now turns to another entry.
Qu. Confirm if pKi reported for the compound CC(C)CCN1C(=O)C(NC(=O)Nc2ccccc2C(C)C)C(=O)N(CCN2CCOCC2)c2ccccc21 (racemic) is 8 or above.
Ans. Not met

* * *

Target: Cholecystokinin receptor type A (Rattus norvegicus)
Sequence (P30551 whole entry): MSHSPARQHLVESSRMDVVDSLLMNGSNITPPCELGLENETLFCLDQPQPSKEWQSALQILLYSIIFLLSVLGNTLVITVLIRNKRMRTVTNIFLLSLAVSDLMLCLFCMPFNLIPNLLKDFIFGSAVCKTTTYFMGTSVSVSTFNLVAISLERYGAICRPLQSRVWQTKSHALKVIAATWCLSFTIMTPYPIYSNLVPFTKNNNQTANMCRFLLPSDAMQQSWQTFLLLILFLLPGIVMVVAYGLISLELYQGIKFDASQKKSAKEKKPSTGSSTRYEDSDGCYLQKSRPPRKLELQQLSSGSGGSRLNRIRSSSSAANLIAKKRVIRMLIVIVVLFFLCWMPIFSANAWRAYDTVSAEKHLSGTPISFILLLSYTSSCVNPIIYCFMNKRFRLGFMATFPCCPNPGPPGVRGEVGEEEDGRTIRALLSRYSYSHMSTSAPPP
Would you mind telling me the reported pKi of each entry?
Give bare numbers, as −log10 of the molar value.

Solved entries:
[[record]]
compound = "Cc1cccc(Cl)c1NC(=O)NC1C(=O)N(CCC(C)C)c2ccccc2N(CCN2CCOCC2)C1=O (racemic)"
observed_value = 5.29

[[record]]
compound = "O=C(Nc1ccccc1)NC1C(=O)N(CCN2CCCC2)c2ccccc2N(CC23CC4CC(CC(C4)C2)C3)C1=O (racemic)"
observed_value = 5.02

[[record]]
compound = "CC(C)CCN1C(=O)C(NC(=O)Nc2ccccc2)C(=O)N(CCN(C)C)c2ccccc21 (racemic)"
observed_value = 5.48


Below: the item to evaluate.
Qu. State, for Cholecystokinin receptor type A (Rattus norvegicus), measured pKi of the compound listed here: CCN(CC)CCN1C(=O)C(NC(=O)Nc2ccccc2)C(=O)N(CC2CCCCC2)c2ccccc21 (stereo in doubt)
Ans. 6.33

* * *

Assay: Displacement of [3H]CCK8 from guinea pig brain CCK2 receptor by liquid scintillation counting
Design: species or system Cavia porcellus
QUANTITY: pKi
Give bare numbers.

[[record]]
compound = "CCN(CC)CCN1C(=O)C(NC(=O)Nc2ccccc2)C(=O)N(CC2CCCCC2)c2ccccc21 (single isomer, unassigned; isomer 1)"
observed_value = 8.23

[[record]]
compound = "COc1ccc(NC(=O)NC2C(=O)N(CCC(C)C)c3ccccc3N(CCN(C)C)C2=O)cc1 (racemic)"
observed_value = 7.95


Below: the item to evaluate.
Qu. Assign pKi to the following record: COc1ccc(NC(=O)NC2C(=O)N(CCC(C)C)c3ccccc3N(CCN3CCOCC3)C2=O)cc1 (racemic)
Ans. 8.1

* * *

Would you mind telling me the reported Ki selectivity ratio (CCK1 Ki / CCK2 Ki) of each entry?
Experiment: Selectivity ratio of pKi for guinea pig brain CCK2 receptor to pKi for rat pancreas CCK1
Numbers only.

Solved entries:
[[record]]
compound = "O=C(Nc1ccccc1)NC1C(=O)N(CCN2CCOCC2)c2cc(F)ccc2N(CC23CC4CC(CC(C4)C2)C3)C1=O (single isomer, unassigned; (+))"
observed_value = 46

[[record]]
compound = "O=C(Nc1ccc(F)cc1)NC1C(=O)N(CCN2CCOCC2)c2ccccc2N(CC23CC4CC(CC(C4)C2)C3)C1=O (single isomer, unassigned; (-))"
observed_value = 2880

[[record]]
compound = "COc1ccc(NC(=O)NC2C(=O)N(CCC(C)C)c3ccccc3N(CCN3CCOCC3)C2=O)cc1 (racemic)"
observed_value = 646

[[record]]
compound = "O=C(Nc1ccc(F)cc1)NC1C(=O)N(CCN2CCOCC2)c2ccccc2N(CC23CC4CC(CC(C4)C2)C3)C1=O (single isomer, unassigned; (+))"
observed_value = 182

[[record]]
compound = "O=C(Nc1ccc(F)cc1)NC1C(=O)N(CCN2CCOCC2)c2ccccc2N(CC23CC4CC(CC(C4)C2)C3)C1=O (racemic)"
observed_value = 646

[[record]]
compound = "CC(C)CCN1C(=O)C(NC(=O)Nc2ccc(Cl)cc2)C(=O)N(CCN2CCOCC2)c2ccccc21 (racemic)"
observed_value = 525

[[record]]
compound = "O=C(Nc1ccccc1)NC1C(=O)N(CCN2CCOCC2)c2cc(F)ccc2N(CC23CC4CC(CC(C4)C2)C3)C1=O (single isomer, unassigned; (-))"
observed_value = 1020

[[record]]
compound = "CC(C)CCN1C(=O)C(NC(=O)Nc2ccc(C(F)(F)F)cc2)C(=O)N(CCN2CCOCC2)c2ccccc21 (racemic)"
observed_value = 407

[[record]]
compound = "CC(C)CCN1C(=O)C(NC(=O)Nc2ccccc2)C(=O)N(CCN2CCOCC2)c2ccccc21 (racemic)"
observed_value = 234


Below: the item to evaluate.
Qu. Assign Ki selectivity ratio (CCK1 Ki / CCK2 Ki) to the following record: CC(C)CCN1C(=O)C(NC(=O)Nc2ccc(Br)cc2)C(=O)N(CCN2CCOCC2)c2ccccc21 (racemic)
Ans. 295

* * *

Would you mind telling me the reported pKi of each entry?
Test: Displacement of [3H]CCK8 from guinea pig brain CCK2 receptor by liquid scintillation counting
Parameters: species or system Cavia porcellus
Give bare numbers.

[[record]]
compound = "CC(C)CCN1C(=O)C(NC(=O)Nc2ccc(O)cc2)C(=O)N(CCN2CCOCC2)c2ccccc21 (racemic)"
quantity = "pKi"
observed_value = 8.13

[[record]]
compound = "Cc1cc(Br)ccc1NC(=O)NC1C(=O)N(CCC(C)C)c2ccccc2N(CCN2CCOCC2)C1=O (racemic)"
quantity = "pKi"
observed_value = 7.85

[[record]]
compound = "O=C(Nc1ccc(F)cc1)NC1C(=O)N(CCN2CCOCC2)c2ccccc2N(CC23CC4CC(CC(C4)C2)C3)C1=O (single isomer, unassigned; (+))"
quantity = "pKi"
observed_value = 7.85


Below: the item to evaluate.
Qu. Assign pKi to the following record: CC(C)CCN1C(=O)C(NC(=O)Nc2ccccc2)C(=O)N(CCN2CCCCC2)c2ccccc21 (racemic)
Ans. 8.17
